Where these numbers come from: patent US20250171420A1

Each item that follows carries a reported DC50.
# ASSAY_TARGET: CK1α (Homo sapiens, UniProt P48729)
# Construct: HEK293 clonal lines with CRISPR KI HiBiT tag on CSNK1A1
# Sequence (P48729 whole entry): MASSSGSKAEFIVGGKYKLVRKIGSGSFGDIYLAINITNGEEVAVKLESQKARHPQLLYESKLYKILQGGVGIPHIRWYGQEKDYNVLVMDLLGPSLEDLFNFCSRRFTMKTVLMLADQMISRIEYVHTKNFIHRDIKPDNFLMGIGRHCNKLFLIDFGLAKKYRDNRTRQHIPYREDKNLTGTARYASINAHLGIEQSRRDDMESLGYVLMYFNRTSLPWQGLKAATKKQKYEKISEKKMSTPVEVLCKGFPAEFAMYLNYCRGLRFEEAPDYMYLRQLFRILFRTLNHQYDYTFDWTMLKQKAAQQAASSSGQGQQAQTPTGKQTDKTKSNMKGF
# Sequence (Q96SW2 whole entry, further chain): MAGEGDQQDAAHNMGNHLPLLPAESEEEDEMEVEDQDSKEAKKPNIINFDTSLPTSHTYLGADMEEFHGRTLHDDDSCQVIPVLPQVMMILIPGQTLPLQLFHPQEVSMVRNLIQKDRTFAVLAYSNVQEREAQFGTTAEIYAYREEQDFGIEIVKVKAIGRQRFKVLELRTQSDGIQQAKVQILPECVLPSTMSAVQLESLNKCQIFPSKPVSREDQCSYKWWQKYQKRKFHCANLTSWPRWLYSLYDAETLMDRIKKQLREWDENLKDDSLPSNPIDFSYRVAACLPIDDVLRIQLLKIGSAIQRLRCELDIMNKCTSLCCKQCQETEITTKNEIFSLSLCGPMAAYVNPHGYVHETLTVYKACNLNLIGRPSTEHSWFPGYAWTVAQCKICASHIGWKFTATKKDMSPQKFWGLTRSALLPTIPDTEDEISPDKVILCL
# Sequence (Q16531 2-1140 partner limits assumed): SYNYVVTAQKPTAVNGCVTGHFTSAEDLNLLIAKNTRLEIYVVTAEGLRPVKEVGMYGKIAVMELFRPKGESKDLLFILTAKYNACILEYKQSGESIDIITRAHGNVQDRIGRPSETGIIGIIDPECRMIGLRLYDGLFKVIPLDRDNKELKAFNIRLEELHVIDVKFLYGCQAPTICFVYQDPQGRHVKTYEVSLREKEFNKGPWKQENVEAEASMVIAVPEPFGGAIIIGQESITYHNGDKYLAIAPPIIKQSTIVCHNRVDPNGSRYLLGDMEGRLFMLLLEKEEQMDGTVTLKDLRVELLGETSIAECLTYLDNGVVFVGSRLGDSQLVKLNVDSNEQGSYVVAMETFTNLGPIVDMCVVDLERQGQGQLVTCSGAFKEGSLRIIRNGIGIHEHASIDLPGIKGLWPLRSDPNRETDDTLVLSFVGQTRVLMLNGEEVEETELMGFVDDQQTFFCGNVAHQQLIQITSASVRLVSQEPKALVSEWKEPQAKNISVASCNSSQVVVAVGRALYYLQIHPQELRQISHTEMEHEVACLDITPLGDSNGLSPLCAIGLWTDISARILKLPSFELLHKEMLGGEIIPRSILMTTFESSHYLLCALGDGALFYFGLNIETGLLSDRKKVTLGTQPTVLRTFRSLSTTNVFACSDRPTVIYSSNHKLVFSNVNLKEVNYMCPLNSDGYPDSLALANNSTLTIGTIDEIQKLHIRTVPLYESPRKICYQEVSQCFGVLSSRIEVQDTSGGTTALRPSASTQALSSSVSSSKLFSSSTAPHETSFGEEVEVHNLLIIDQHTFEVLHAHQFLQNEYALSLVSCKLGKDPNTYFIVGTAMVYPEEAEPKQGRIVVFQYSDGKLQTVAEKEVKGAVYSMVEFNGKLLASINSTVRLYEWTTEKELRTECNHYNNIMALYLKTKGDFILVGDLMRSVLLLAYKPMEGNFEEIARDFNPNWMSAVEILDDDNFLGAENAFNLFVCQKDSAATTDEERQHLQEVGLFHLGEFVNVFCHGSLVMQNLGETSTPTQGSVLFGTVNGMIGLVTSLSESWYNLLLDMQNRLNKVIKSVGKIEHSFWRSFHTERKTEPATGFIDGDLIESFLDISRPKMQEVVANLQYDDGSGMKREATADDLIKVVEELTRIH
# PROCEDURE_SUMMARY: CK1α NanoBit Assay (HiBiT-tagged CSNK1A1, HEK293 clonal lines)
# Assay type: cell-based
# DETAILS: HEK293 HiBiT-CSNK1A1/LgBiT cells, 24 h incubation

Example entries and their recorded answers appear below.
O=C1CCC(N2Cc3cc(NC(=O)N4CCc5cccnc5C4)ccc3C2=O)C(=O)N1 (stereo not shown) ... 0.1 to 1 µM
O=C1CCC(N2Cc3cc(NC(=O)N4CC5(CCOC5)c5ccccc54)ccc3C2=O)C(=O)N1 (stereo not shown) ... < 0.1 µM
O=C1CCC(N2Cc3cc(NC(=O)N4Cc5ccc(Cl)cc5C4)ccc3C2=O)C(=O)N1 (stereo not shown) ... < 0.1 µM
O=C1CCC(N2Cc3cc(NC(=O)N4CC5CC5c5cc(Br)ccc54)ccc3C2=O)C(=O)N1 (stereo not shown) ... < 0.1 µM
COCC1c2cc(C(F)(F)F)ccc2CN1C(=O)Nc1ccc2c(c1)CN(C1CCC(=O)NC1=O)C2=O (stereo not shown) ... < 0.1 µM

Okay, now this compound:
q: Please tell me: DC50 of CC1c2ccccc2N(C(=O)Nc2ccc3c(c2)CN(C2CCC(=O)NC2=O)C3=O)C1C (stereo not shown) , system CK1α (Homo sapiens, UniProt P48729)?
a: < 0.1 µM
